System: ROCK2 (Homo sapiens) | Read-out: IC50 | Origin: multiple publications
Sequence (O75116 whole entry, species assumed): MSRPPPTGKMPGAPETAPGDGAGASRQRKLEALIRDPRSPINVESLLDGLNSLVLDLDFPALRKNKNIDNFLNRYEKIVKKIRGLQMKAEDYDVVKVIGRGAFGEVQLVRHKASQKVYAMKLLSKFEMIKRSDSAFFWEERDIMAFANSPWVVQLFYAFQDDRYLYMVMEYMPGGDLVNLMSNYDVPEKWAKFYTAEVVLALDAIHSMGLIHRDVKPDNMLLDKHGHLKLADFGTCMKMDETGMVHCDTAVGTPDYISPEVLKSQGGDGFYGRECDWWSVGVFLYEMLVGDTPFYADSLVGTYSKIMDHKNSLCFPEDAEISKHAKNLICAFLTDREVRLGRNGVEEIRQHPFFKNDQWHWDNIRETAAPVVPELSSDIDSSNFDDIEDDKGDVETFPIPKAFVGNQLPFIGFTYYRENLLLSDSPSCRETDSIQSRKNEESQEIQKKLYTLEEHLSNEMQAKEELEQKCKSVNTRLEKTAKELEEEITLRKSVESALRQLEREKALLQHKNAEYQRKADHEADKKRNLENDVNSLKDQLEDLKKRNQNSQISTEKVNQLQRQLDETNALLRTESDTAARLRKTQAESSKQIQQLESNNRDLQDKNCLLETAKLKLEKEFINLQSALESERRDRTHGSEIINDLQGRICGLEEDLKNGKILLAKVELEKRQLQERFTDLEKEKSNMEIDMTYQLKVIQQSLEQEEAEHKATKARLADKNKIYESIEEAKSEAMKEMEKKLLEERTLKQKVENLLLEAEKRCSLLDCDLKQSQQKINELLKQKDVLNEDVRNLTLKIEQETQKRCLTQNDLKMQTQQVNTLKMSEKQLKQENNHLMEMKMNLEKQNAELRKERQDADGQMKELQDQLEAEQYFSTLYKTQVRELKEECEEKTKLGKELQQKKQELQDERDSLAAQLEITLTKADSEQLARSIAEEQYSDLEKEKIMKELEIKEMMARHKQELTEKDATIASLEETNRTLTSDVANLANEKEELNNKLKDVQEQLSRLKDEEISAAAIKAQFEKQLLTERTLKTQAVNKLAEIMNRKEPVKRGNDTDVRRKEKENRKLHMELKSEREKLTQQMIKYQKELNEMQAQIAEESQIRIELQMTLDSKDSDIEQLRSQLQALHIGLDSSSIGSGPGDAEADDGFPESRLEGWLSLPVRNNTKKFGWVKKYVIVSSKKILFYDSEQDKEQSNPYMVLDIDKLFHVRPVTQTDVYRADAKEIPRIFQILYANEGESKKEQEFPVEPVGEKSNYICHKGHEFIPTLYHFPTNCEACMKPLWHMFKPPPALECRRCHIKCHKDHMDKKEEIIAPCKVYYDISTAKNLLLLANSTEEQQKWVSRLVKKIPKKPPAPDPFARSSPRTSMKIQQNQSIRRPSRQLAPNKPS

Compound | IC50
COc1cc(C(=O)NC(Cc2ccccc2)C(C)=O)ccc1-c1cn[nH]c1 (stereo not shown) | 14 nM
COc1cc(-n2ncn(Cc3ccccc3Cl)c2=O)ccc1-c1cn[nH]c1 | 5 to 50 nM
O=C(Nc1ccc2c(c1)OCc1cnccc1-2)C(O)c1ccccc1 (stereo not shown) | 51.2 nM
COCCOc1cc(-c2cn[nH]c2)ccc1C(=O)N[C@H](C)c1cccc(C(=O)NC2CCCC2)c1 | 1.02 nM
COc1cc(N2CCC3(CCN(C(=O)c4ccc(-c5cccnc5)cc4)CC3)C2=O)ccc1-c1cn[nH]c1 | 4.1 nM

So what IC50 did COc1cc(N2CCC3(CCN(C(=O)c4ccc5c(c4)nc(C)n5C)CC3)C2=O)ccc1-c1cn[nH]c1 get with ROCK2 (Homo sapiens)?
2.3 nM

So what IC50 did COc1nc(N2CCN(Cc3noc(C)n3)C2=O)ccc1-c1cn[nH]c1 get with ROCK2 (Homo sapiens)?
200 to 2000 nM

So what IC50 did Cn1c(-c2nccs2)cc2ccc(-c3nccc(Nc4ccc(-c5cn[nH]c5)cc4)n3)cc21 get with ROCK2 (Homo sapiens)?
62 nM
